Parameter EC50: see the listing below.
# system-tested: SARS-CoV-2 receptor binding domain (RBD), wild type (SARS-CoV-2, UniProt P0DTC2 319-539)
# method-description: ELISA, RBD coated on the plate, antibody titrated
Just the number please, in ng/mL, no unit attached.

INSERT INTO measurements (binder, observed) VALUES
  ('C594 (antibody, V domains shown) VH: QVQLVESGGGVVQPGRSLRLSCAASGFTFSSYGMHWVRQAPGKGLEWVAVISDDGSNKYYADSVKGRFTISRDNSKNTLYLQMNSLRAEDTAVYYCAKSWWLSENWFDPWGQGTLVTVSS VL: EIVMTQSPATLSVSPGERATLSCRASQSVSSNLAWYQQKPGQAPRLLIYGASTRATGIPARFSGTGSGTEFTLTISSLQSEDFAVYYCQQYNNWPLTFGGGTKVEIK', 2.63);

Qu. # EC50 lookup, item C590 (antibody, V domains shown) VH: QVQLVQSGAEVKKPGASVKVSCKVSGYNLTELSMYWVRQAPGKGLEWMGGFDPEDGGPIHAQKFQGRVTMTEDPSTDTAYMELRSLRSEDTALYYCATGGLFMIRGLEIWGRGTLVTVSS VL: EIVLTQSPGTLSLSPGERATLSCRASQSISYTSLAWYQQKPGQAPRLLIFGASRGATGTPDRFSGSWSGTDFTLTISRLEPEDFAVYYCQQYGNSPRLSFGGGTKVEIK
Ans. 2.81

Qu. Also need C586 (antibody, V domains shown) VH: EVQLVESGGGLIQPGGSLRLSCTASGLIVSSNYMSWIRQAPGKGLEWVSLIYSGGSTFYADSVKGRFTISRDNSKNTLFLHMNSLRAEDTAVYYCARHPYGTDVWGQGTTVTVSS VL: DIQMTQSPSSLSASVGDRVTITCQASQDIVKYLNWYQQKSGKAPKLLIHDASNLETGVTSRFSGSGSGTHFTFTISSLQPEDLATYYCQQYDNLPITFGQGTRLEIK , thanks.
Ans. 5.42
